B1: Glucocorticoid receptor, residues 419 to 494; numbered along this chain, P04150 (parent)
chain: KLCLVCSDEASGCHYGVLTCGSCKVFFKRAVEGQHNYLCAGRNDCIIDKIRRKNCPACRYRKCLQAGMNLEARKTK

Variants of: B1
experiment.notes: abundance fitness (aPCA) (normalised: wild type 0, dead -1); higher = more abundant; growth selection in yeast, the domain comes from the species named
condition.summary: Homo sapiens
Use -0.005 as the dividing line for abundance fitness, with the line itself on the met side and lower values as not met.

q: Is abundance fitness at least -0.005? Consider `K49D`
a: not met

q: Is abundance fitness at least -0.005? Consider `G12F`
a: not met

q: Is abundance fitness at least -0.005? Consider `D48I`
a: not met

q: Is abundance fitness at least -0.005? Consider `A30H`
a: not met

q: Is abundance fitness at least -0.005? Consider `L4F`
a: not met

q: Is abundance fitness at least -0.005? Consider `K62T`
a: not met

q: Is abundance fitness at least -0.005? Consider `N69W`
a: not met

q: Is abundance fitness at least -0.005? Consider `K74C`
a: not met

q: Is abundance fitness at least -0.005? Consider `F26K`
a: not met

q: Is abundance fitness at least -0.005? Consider `C6R`
a: not met

q: Is abundance fitness at least -0.005? Consider `C6E`
a: not met

q: Is abundance fitness at least -0.005? Consider `E71L`
a: not met

q: Is abundance fitness at least -0.005? Consider `F26A`
a: not met

q: Is abundance fitness at least -0.005? Consider `E9M`
a: met

q: Is abundance fitness at least -0.005? Consider `H14T`
a: not met

q: Is abundance fitness at least -0.005? Consider `A57S`
a: not met

q: Is abundance fitness at least -0.005? Consider `L70H`
a: met

q: Is abundance fitness at least -0.005? Consider `A72M`
a: met

q: Is abundance fitness at least -0.005? Consider `P56A`
a: met

q: Is abundance fitness at least -0.005? Consider `A57F`
a: not met

q: Is abundance fitness at least -0.005? Consider `L70S`
a: met

q: Is abundance fitness at least -0.005? Consider `L2Y`
a: met

q: Is abundance fitness at least -0.005? Consider `V25R`
a: met

q: Is abundance fitness at least -0.005? Consider `G12P`
a: not met

q: Is abundance fitness at least -0.005? Consider `L38N`
a: met

q: Is abundance fitness at least -0.005? Consider `E71S`
a: not met

q: Is abundance fitness at least -0.005? Consider `N69T`
a: met

q: Is abundance fitness at least -0.005? Consider `K76I`
a: not met

q: Is abundance fitness at least -0.005? Consider `K49N`
a: not met

q: Is abundance fitness at least -0.005? Consider `R51V`
a: not met

q: Is abundance fitness at least -0.005? Consider `D8H`
a: not met

q: Is abundance fitness at least -0.005? Consider `V17E`
a: not met

q: Is abundance fitness at least -0.005? Consider `A57K`
a: not met

q: Is abundance fitness at least -0.005? Consider `R52C`
a: met

q: Is abundance fitness at least -0.005? Consider `T19W`
a: not met

q: Is abundance fitness at least -0.005? Consider `K76G`
a: met

q: Is abundance fitness at least -0.005? Consider `P56L`
a: not met

q: Is abundance fitness at least -0.005? Consider `V17C`
a: met

q: Is abundance fitness at least -0.005? Consider `A66T`
a: met

q: Is abundance fitness at least -0.005? Consider `I47W`
a: not met

q: Is abundance fitness at least -0.005? Consider `Y60K`
a: not met

q: Is abundance fitness at least -0.005? Consider `L4A`
a: not met

q: Is abundance fitness at least -0.005? Consider `G21Q`
a: met

q: Is abundance fitness at least -0.005? Consider `S7L`
a: not met

q: Is abundance fitness at least -0.005? Consider `D48H`
a: not met

These measurements were taken from the Human Domainome abundance scans (Beltran et al. 2025).
